# protocol: Rat in vivo pharmacokinetic assay (IV and PO)
# Set-up: species or system SD rats
# condition.label: plasma; male SD rat, IV, 2 mg/kg, time 0→∞
endpoint.label: AUC(0-inf) (ng·h/mL)
Report the value in ng·h/mL with no unit label.

1) OC[C@H]1OC(c2ccc(Cl)c(Cc3ccc(C4CCC5(CCC5)CC4)cc3)c2)[C@H](O)[C@@H](O)[C@@H]1O (stereo partly shown)    7010
2) OC[C@H]1OC(c2ccc(Cl)c(Cc3ccc(OC4C5COCC54)cc3)c2)[C@H](O)[C@@H](O)[C@@H]1O (stereo partly shown)    984
3) OC[C@H]1OC(c2ccc(Cl)c(Cc3ccc(OC4CC5CC5C4)cc3)c2)[C@H](O)[C@@H](O)[C@@H]1O (stereo partly shown)    13500

Ask | Return value of AUC(0-inf) for input OC[C@H]1O[C@@H](c2ccc(Cl)c(Cc3ccc(O[C@H]4CCOC4)cc3)c2)[C@H](O)[C@@H](O)[C@@H]1O [BI-10773, reference compound] , no commentary.
Reply | 1100

* * *

Quick list: AUC(0-t) per entry.
# protocol: Rat in vivo pharmacokinetic assay (IV and PO)
# Set-up: species or system SD rats
# condition.label: plasma; male SD rat, IV, 2 mg/kg, time 0→t
Report the value in ng·h/mL with no unit label.

Please review the entries below; each comes with its answer.
1) OC[C@H]1OC(c2ccc(Cl)c(Cc3ccc(C4CCC5(CCC5)CC4)cc3)c2)[C@H](O)[C@@H](O)[C@@H]1O (stereo partly shown)    6950
2) OC[C@H]1OC(c2ccc(Cl)c(Cc3ccc(OC4C5COCC54)cc3)c2)[C@H](O)[C@@H](O)[C@@H]1O (stereo partly shown)    972
3) OC[C@H]1O[C@@H](c2ccc(Cl)c(Cc3ccc(O[C@H]4CCOC4)cc3)c2)[C@H](O)[C@@H](O)[C@@H]1O [BI-10773, reference compound]    1090

Ask | Return value of AUC(0-t) for input OC[C@H]1OC(c2ccc(Cl)c(Cc3ccc(OC4CC5CC5C4)cc3)c2)[C@H](O)[C@@H](O)[C@@H]1O (stereo partly shown) , no commentary.
Reply | 12400

* * *

Quick list: pIC50 per entry.
# tested.target: UniProt P13866
# Sequence (P13866 whole entry): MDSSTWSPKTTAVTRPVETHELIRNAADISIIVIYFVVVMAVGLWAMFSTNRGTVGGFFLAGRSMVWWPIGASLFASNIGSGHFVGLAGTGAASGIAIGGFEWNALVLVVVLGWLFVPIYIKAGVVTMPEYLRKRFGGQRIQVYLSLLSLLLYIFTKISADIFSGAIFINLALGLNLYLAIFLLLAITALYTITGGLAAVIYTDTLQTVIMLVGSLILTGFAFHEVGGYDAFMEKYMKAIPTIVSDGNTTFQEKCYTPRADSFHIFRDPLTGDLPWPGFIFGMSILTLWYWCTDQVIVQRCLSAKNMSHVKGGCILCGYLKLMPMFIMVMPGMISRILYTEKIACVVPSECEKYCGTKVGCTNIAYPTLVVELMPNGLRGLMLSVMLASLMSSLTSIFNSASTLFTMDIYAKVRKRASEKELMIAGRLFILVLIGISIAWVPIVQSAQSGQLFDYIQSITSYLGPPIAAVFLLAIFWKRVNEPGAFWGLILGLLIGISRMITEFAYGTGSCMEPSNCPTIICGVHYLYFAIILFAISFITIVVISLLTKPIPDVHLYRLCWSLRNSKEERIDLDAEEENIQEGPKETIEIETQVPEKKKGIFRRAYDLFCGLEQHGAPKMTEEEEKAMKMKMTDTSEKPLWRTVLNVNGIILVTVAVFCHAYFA
# protocol: Inhibition of sodium dependent [14C]-AMG uptake in CHO cells stably expressing human SGLT1
# condition.label: CHO cells expressing human SGLT1, [14C]-AMG uptake
Please treat pIC50 as minus the base-10 logarithm of the molar concentration.

1) OC[C@H]1OC(c2ccc(Cl)c(Cc3ccc(OC4C5COCC54)cc3)c2)[C@H](O)[C@@H](O)[C@@H]1O (stereo partly drawn)    5.72
2) OC[C@H]1OC(c2ccc(Cl)c(Cc3ccc(OC4CC5CC5C4)cc3)c2)[C@H](O)[C@@H](O)[C@@H]1O (stereo partly drawn)    5.62

Continue with the compound presented below.
Ask | Return value of pIC50 for input OC[C@H]1OC(c2ccc(Cl)c(Cc3ccc(C4CCC5(CCC5)CC4)cc3)c2)[C@H](O)[C@@H](O)[C@@H]1O (stereo partly drawn) , no commentary.
Reply | 4.54

* * *

# protocol: Rat in vivo pharmacokinetic assay (IV and PO)
# Parameters: species or system SD rats
# condition.label: plasma; male SD rat, PO, 5 mg/kg, time 0→∞
endpoint.label: AUC(0-inf) (ng·h/mL)
Report the value in ng·h/mL with no unit label.

Please review the entries below; each comes with its answer.
1. OC[C@H]1O[C@@H](c2ccc(Cl)c(Cc3ccc(O[C@H]4CCOC4)cc3)c2)[C@H](O)[C@@H](O)[C@@H]1O [BI-10773, reference compound]    457
2. OC[C@H]1OC(c2ccc(Cl)c(Cc3ccc(OC4CC5CC5C4)cc3)c2)[C@H](O)[C@@H](O)[C@@H]1O (stereo partly shown)    29500
3. OC[C@H]1OC(c2ccc(Cl)c(Cc3ccc(OC4C5COCC54)cc3)c2)[C@H](O)[C@@H](O)[C@@H]1O (stereo partly shown)    464

Ask | Return value of AUC(0-inf) for input OC[C@H]1OC(c2ccc(Cl)c(Cc3ccc(C4CCC5(CCC5)CC4)cc3)c2)[C@H](O)[C@@H](O)[C@@H]1O (stereo partly shown) , no commentary.
Reply | 6290

Values from patent US10253010B2
